Test system: TTAA hairpin (ESI-MS, CD) (DNA, hairpin) CGTTAAGCTTTCTTAACG
protocol_notes: competition ESI-MS
experimental_context: NH4+ 100 mM (ammonium acetate); 10% methanol, pH 6.8; AATT and TTAA 10 μM each, compound 20 μM
measured_metric: binding

>>> print(df.to_string())
                              smiles_string                               target_desc  result
0  N=C(N)c1ccc2[nH]c(-c3ccc(-c4ccc(C(=N)N)o4)o3)nc2c1  TTAA hairpin (ESI-MS, CD) (DNA, hairpin) CGTTAAGCTTTCTTAACG     yes
1  N=C(N)c1ccc2nc(-c3ccc(-c4ccc(C(=N)N)o4)s3)[nH]c2c1  TTAA hairpin (ESI-MS, CD) (DNA, hairpin) CGTTAAGCTTTCTTAACG    weak
2  N=C(N)c1ccc2[nH]c(-c3ccc(-c4ccc(C(=N)N)s4)s3)nc2c1  TTAA hairpin (ESI-MS, CD) (DNA, hairpin) CGTTAAGCTTTCTTAACG    weak
3  N=C(N)c1ccc2[nH]c(-c3ccc(-c4ccc(C(=N)N)s4)o3)nc2c1  TTAA hairpin (ESI-MS, CD) (DNA, hairpin) CGTTAAGCTTTCTTAACG     yes
